Values were extracted from ChEMBL document CHEMBL1201862.

Let's look at some molecules and their measured GI50.
# System: LXFL 529
# Measurement notes: NCI tumour cell line growth inhibition, 48 h
Active and inactive are the calls of the source. No stated cut-off is given here; in the data, active = GI50 up to about 1.1 µM and inactive = higher.
Quantity: GI50

# Molecule, Tested target, Quantity, Recorded result
measured = [
    ("O=C(N/C(=C\\c1ccc(/C=C(\\NC(=O)c2ccccc2)c2nc3ccccc3[nH]2)cc1)c1nc2ccccc2[nH]1)c1ccccc1", "LXFL 529", "GI50", "> 100 µM (inactive)"),
    ("COc1ccc(NC(=O)CC2S/C(=N\\c3ccccc3C)NC2=O)c([N+](=O)[O-])c1 (configuration not stated)", "LXFL 529", "GI50", "> 100 µM (inactive)"),
    ("O=C(CC1(O)C(=O)Nc2c(Cl)ccc(Cl)c21)c1ccc(Cl)cc1 (configuration not stated)", "LXFL 529", "GI50", "25.2 µM (inactive)"),
    ("CN(C)CCn1c2c3ccccc3ccc2c2oc(=O)c3ccccc3c21", "LXFL 529", "GI50", "4.98 µM (inactive)"),
    ("CCCCCC[C@@H]1CCC2C(CO)[C@@H](O)CC[C@@H]2C1 (some centres not stated)", "LXFL 529", "GI50", "18.5 µM (inactive)"),
    ("Cc1c(Cl)cccc1NC(=O)/C(Cl)=C(\\Cl)C(=O)O", "LXFL 529", "GI50", "19.8 µM (inactive)"),
    ("CC(C)c1ccccc1NC(=O)CCc1n[nH]c(=S)o1", "LXFL 529", "GI50", "> 79.8 µM (inactive)"),
]
